measured-on: PI3-kinase p110-delta/p85-alpha (Homo sapiens)
Sequence (P27986 whole entry): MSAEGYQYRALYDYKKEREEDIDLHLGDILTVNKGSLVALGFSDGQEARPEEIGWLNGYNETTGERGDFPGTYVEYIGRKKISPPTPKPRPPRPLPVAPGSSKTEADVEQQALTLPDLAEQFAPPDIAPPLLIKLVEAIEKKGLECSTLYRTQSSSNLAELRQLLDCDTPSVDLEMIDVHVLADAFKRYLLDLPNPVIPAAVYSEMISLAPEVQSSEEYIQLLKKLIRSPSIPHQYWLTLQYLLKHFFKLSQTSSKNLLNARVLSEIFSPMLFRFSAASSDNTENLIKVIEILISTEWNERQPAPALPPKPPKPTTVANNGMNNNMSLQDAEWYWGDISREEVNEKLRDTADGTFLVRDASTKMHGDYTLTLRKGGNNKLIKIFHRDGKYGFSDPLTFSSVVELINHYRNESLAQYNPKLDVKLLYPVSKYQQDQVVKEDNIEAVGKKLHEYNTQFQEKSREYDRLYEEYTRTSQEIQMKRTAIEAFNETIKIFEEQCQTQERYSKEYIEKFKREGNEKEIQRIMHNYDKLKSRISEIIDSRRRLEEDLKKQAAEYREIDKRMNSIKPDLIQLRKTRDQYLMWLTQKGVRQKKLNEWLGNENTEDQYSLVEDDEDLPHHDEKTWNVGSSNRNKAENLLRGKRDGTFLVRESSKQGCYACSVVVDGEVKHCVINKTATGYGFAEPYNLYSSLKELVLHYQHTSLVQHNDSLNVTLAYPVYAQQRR
Sequence (O00329 whole entry): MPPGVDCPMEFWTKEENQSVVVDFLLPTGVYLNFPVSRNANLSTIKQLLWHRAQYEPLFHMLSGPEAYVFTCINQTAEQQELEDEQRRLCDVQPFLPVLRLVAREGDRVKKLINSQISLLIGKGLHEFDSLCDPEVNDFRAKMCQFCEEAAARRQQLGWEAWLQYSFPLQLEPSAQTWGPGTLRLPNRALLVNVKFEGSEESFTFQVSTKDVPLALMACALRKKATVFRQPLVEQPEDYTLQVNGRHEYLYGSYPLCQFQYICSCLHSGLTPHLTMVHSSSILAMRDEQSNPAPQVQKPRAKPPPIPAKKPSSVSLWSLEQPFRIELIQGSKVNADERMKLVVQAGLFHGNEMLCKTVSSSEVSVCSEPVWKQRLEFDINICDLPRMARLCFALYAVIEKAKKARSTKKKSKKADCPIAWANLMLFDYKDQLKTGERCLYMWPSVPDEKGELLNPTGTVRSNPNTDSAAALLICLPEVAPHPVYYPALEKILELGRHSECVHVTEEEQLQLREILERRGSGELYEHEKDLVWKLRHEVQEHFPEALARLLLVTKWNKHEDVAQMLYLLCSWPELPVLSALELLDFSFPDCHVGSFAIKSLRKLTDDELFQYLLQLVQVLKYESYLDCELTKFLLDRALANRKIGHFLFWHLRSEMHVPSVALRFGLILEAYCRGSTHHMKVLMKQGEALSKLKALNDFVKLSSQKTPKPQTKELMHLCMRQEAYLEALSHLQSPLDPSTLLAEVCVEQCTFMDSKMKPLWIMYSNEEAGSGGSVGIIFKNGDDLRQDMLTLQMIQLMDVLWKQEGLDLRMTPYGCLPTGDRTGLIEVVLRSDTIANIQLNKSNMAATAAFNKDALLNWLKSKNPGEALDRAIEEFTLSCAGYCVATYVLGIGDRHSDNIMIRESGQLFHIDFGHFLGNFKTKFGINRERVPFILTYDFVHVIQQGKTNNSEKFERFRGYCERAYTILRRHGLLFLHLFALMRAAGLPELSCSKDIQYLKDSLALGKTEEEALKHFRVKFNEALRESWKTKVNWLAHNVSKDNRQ
pIC50: −log10 of the molar value.
Use MET when the recorded pIC50 is no lower than 7; use NOT MET when it is lower.

Below are worked cases with known answers.
{"compound-structure-string": "N#Cc1c(N)nc(N)nc1N1CC2(CC2)C[C@H]1c1nc2cccc(Cl)c2c(=O)n1-c1ccccc1", "cat": "MET"}
{"compound-structure-string": "O=c1c2c(F)cccc2nc([C@@H]2CC3(CC3)CN2c2ncnc3[nH]cnc23)n1C1CCCC1", "cat": "NOT MET"}
{"compound-structure-string": "O=c1c2c(Cl)cccc2nc([C@@H]2CC3(CC3)CN2c2nc(Cl)nc3[nH]cnc23)n1-c1ccccc1", "cat": "NOT MET"}
{"compound-structure-string": "Cc1cccc2nc([C@@H]3CC4(CC4)CN3c3ncnc4[nH]cnc34)n(-c3ccccc3)c(=O)c12", "cat": "MET"}
{"compound-structure-string": "O=c1c2c(Cl)cccc2nc([C@@H]2CC3(CC3)CN2c2ncnc3[nH]cnc23)n1-c1ccccc1", "cat": "MET"}
{"compound-structure-string": "O=c1c2c(F)cccc2nc([C@@H]2CC3(CC3)CN2c2ncnc3[nH]cnc23)n1-c1ccccc1", "cat": "MET"}
{"compound-structure-string": "Cc1nc(N)nc(N2CC3(CC3)C[C@H]2c2nc3cccc(F)c3c(=O)n2-c2ccccc2)c1C#N", "cat": "MET"}

// next entry
Ask: Is the recorded value of pIC50 equal to or greater than 7 for this compound? "N#Cc1c(N)ncnc1N1CC2(CC2)C[C@H]1c1nc2cccc(F)c2c(=O)n1-c1ccccc1"
Result: MET
